growth reference
System: HT29 colon
measurementProtocol: NCI-60 one-dose screen, 48 h (100 = growth as untreated, 0 = no growth, -100 = all killed)
experimentalContext: 10 µM
About 83,000 compounds went through this panel and 20% of them were active in at least one assay; those are over-represented in the sample as a whole.
Answer with a number only, understood to be in %.

Recorded results for 5 molecules are shown here.
COc1cccc(-c2ccnc(/N=C(\N)Nc3ccc(S(=O)(=O)Nc4nc(C)cc(C)n4)cc3)n2)c1 | 106
CCN1CCN(Cc2ccc(C(=O)Nc3cccc(-c4cn(-c5ccc6oc(=O)ccc6c5)nn4)c3)cc2C(F)(F)F)CC1 | -100
COc1ccc2[nH]cc(/C=N/Nc3cccc(Cl)n3)c2c1 | 60.6
Cc1cc(=O)oc2cc(OCCCCOc3ccc(/C=C/C(=O)Nc4ccc(F)c(Cl)c4)cc3)ccc12 | 111
COc1ccc2[nH]cc(/C=N/Nc3ccc(Br)cn3)c2c1 | 23.3

Data request: Look at this molecule and give its reported growth. N#Cc1c(NC(=O)c2ccc(C(F)(F)F)cc2)sc2c1CCC(=O)C2
Data returned: 8.13

* * *

Tested on: UACC-257 melanoma
measurementProtocol: NCI-60 one-dose screen, 48 h (100 = growth as untreated, 0 = no growth, -100 = all killed)
experimentalContext: 10 µM
Compounds without any hit were thinned out: in the full panel of roughly 83,000, 20% have a hit.
Classification field: enter Criterion met for growth values not below -70%, Criterion not met for values below it.

Cn1cc(-c2cc(N)n3nc(-c4c[nH]c5ccc(Br)cc45)cc3n2)c2cc(Br)cnc21 | Criterion met
O=C(Nc1ccc(OCc2ccccc2)cc1)Nc1ccc(Cl)c(C(F)(F)F)c1 | Criterion met
CN1CCN(c2ccc(Nc3nc(NCCCNC(=O)c4ccccc4)c4sccc4n3)cc2)CC1 | Criterion met
CC(=C(c1ccc(OCCN2CCCCCC2)cc1)c1ccc(OCCN2CCCCCC2)cc1)c1ccc(Cl)cc1 | Criterion not met
C=C(C)[C@@H]1CC[C@]2(C)[C@H](CC=C3[C@@H]4CC(C)(C)CC[C@]4(C(=O)N4CCOCC4)CC[C@]32C)[C@@]1(C)CCCN | Criterion not met

Data request: Confirm if growth reported for the molecule C/C(=N\N=C\c1ccc(N(C)C)cc1)c1ccc2c(c1)Nc1ccccc1S2 is -70% or above.
Data returned: Criterion met

Data request: Kindly determine if growth recorded for CCOC(=O)C1=C(N)N(c2ccccc2)C2=C(C(=O)CC(C)(C)C2)C1c1ccccc1OC (centres undefined) is above or exactly -70%.
Data returned: Criterion met

Data request: Check this molecule for growth at or above -70%: CN1C(=O)N(C)C2SC(N/N=C/c3ccc(F)cc3)=NC21 (centres undefined)
Data returned: Criterion met

Data request: hey, is growth for this one >= -70%? CCCS(=O)(=O)c1oc(-c2ccc(F)cc2)nc1S(=O)(=O)c1ccc(F)cc1
Data returned: Criterion met

* * *

System: TK-10 renal
measurementProtocol: NCI-60 one-dose screen, 48 h (100 = growth as untreated, 0 = no growth, -100 = all killed)
experimentalContext: 10 µM
Method: Growth inhibition of the TK-10 human tumor cell line is measured as a screen for anti-cancer activity. Cells are grown in 96 well plates and exposed to the test compound for 48 hours. Compounds are tested at a single concentration, which is 10^-5 M for most compounds. The reported endpoint is percent growth (GI% or GIPRCNT), where numbers from 0 - 100% represent growth inhibition, and numbers from -100% - 0 represent cell death. For example, a value of 40 represents 60% growth inhibition. […]
The panel holds about 83,000 compounds, 20% with a hit somewhere; the sample as a whole holds those more often.
growth values for the compounds below.
Number in %, nothing else.

Solved cases below.
O=C(c1ccc(Cl)cc1)C1[C@H](c2ccccc2Br)[C@@H](c2ccccc2)NC12C(=O)Nc1ccccc12 (stereo partly drawn) | 55.7
CNC(=O)c1cccc(N2CCc3c2ccc(NC(=O)Nc2ccc(N4CCN(C)CC4)c(C(F)(F)F)c2)c3F)c1 | -94.7

Alright, here's another compound for you.
Data request: // returns reported growth for input N#Cc1ccc(-c2nn(-c3ccc(C(=O)O)cc3)cc2CNc2ccc(Cl)cc2)cc1
Data returned: 108

* * *

Test system: HCC-2998 colon
measurementProtocol: NCI-60 one-dose screen, 48 h
experimentalContext: 10 µM
Compounds without any hit were thinned out: in the full panel of roughly 83,000, 20% have a hit. Active and inactive are the calls of the source. Rule for the calls: active = growth percent below 10; inactive = the rest.
Bench note: report the call from 1 (active), 0 (inactive)

Recorded results for 10 molecules are shown here.
O=C(Nc1cccc(C(F)(F)F)c1)c1cncc(C#Cc2cnc3ccc(N4CCOCC4)nn23)c1 | 1
COc1cc2c(cc1OC)/C(=C\c1sc(Nc3ccc(O)cc3)nc1O)C(C(=O)O)=N2 | 0
CCCn1c(=O)c2[nH]c(-c3ccc(OCc4nc5ccccc5[nH]4)cc3)nc2n(CCC)c1=O | 0
CCOC(=O)C1=C(N)N(c2ccccc2)C2=C(C(=O)CC(C)(C)C2)C1c1ccc(Cl)cc1 (stereo unspecified) | 0
COc1cc(C2CC(c3ccc(C)cc3)=Nc3c(N)nc(N)nc3N2)ccc1Oc1nc(Nc2ccc(F)cc2)nc(N(C)C)n1 (stereo unspecified) | 0
N#Cc1c(NC(=O)c2ccc(C(F)(F)F)cc2C(F)(F)F)sc2c1CCC(=O)C2 | 1
O=C(c1ccc(Cl)cc1)C1[C@H](c2ccccc2Br)[C@@H](c2ccccc2)NC12C(=O)Nc1ccc(Cl)cc12 (stereo partly specified) | 1
CC1(C)CC[C@]23CC[C@]4(C)[C@H](CC[C@@H]5[C@@]6(C)CC[C@H](N)C(C)(C)[C@@H]6CC[C@]54C)[C@H]2[C@H]1OC3=O | 1
COc1ccc(C2NC(=S)NC(C)=C2C(=O)OC(C)C)cc1OC (stereo unspecified) | 0
N#Cc1ccc(-c2nn(-c3ccc(C(=O)O)cc3)cc2CNc2ccc(Oc3ccccc3)cc2)cc1 | 0

Data request: What was the test verdict on COc1ccc(CN2[C@@H](C(=O)NCc3ccc(C(=O)NO)cc3)Cc3c([nH]c4ccccc34)[C@@H]2C)cc1 ?
Data returned: 0

* * *

Tested on: NCI/ADR-RES ovarian
measurementProtocol: NCI-60 one-dose screen, 48 h (100 = growth as untreated, 0 = no growth, -100 = all killed)
experimentalContext: 10 µM
Experimental: Growth inhibition of the NCI/ADR-RES human […] tumor cell line is measured as a screen for anti-cancer activity. Cells are grown in 96 well plates and exposed to the test compound for 48 hours. Compounds are tested at a single concentration, which is 10^-5 M for most compounds. The reported endpoint is percent growth (GI% or GIPRCNT), where numbers from 0 - 100% represent growth inhibition, and numbers from -100% - 0 represent cell death. For example, a value of 40 represents 60% growth inhibition. […]
The panel holds about 83,000 compounds, 20% with a hit somewhere; the sample as a whole holds those more often.
Rule: growth under 40% gives Not fulfilled, otherwise Fulfilled.

Reference set (10 entries):
CC(C)Sc1nc(NC2CC2)c(C#N)c(-c2ccccc2)n1 | Fulfilled
COc1cc2c(cc1OC)/C(=C\c1sc(Nc3ccc(O)cc3)nc1O)C(C(=O)O)=N2 | Fulfilled
C/C(=C\CSc1ccccc1C(=O)O)CCCC(C)CCCC(C)CCCC(C)C (stereo not drawn) | Fulfilled
Cc1ccc(C(=O)CSc2nnc(-c3c[nH]c4ccccc34)n2-c2ccccc2)cc1 | Not fulfilled
O=C(CSc1nnc(-c2c[nH]c3ccccc23)n1-c1ccccc1)c1ccc(Cl)cc1 | Not fulfilled
c1ccc(C(=C(c2ccc(OCCN3CCCCC3)cc2)c2ccc(OCCN3CCCCC3)cc2)C2CCCC2)cc1 | Fulfilled
COc1ccc(NC(=O)Cn2c(/C=C/c3ccc(N(C)C)cc3)nc3ccccc3c2=O)cc1 | Not fulfilled
Cc1ccc(CNC(=O)Cc2ccc3c(c2)CN(C2CCC(=O)NC2=O)C3=O)cc1 (stereo not drawn) | Not fulfilled
O=C(c1ccc([N+](=O)[O-])c([N+](=O)[O-])c1O)n1[nH]c(=O)c2ccccc2c1=O | Not fulfilled
Cn1cc(/C=N/Nc2cccc(Cl)n2)c2ccccc21 | Not fulfilled

Data request: Assess whether reported growth for O=C1CCC(N2Cc3c(C#CCCCNC(=O)c4ccc(NC(=O)[C@@H]5NC6(CCCCC6)[C@@]6(C(=O)Nc7cc(Cl)ccc76)[C@H]5c5cccc(Cl)c5F)cc4)cccc3C2=O)C(=O)N1 (stereo partly drawn) sits at 40% or higher.
Data returned: Fulfilled

Data request: Assess whether reported growth for COc1cccc(C(N)=Nc2ccc(OCCCCCCn3cncn3)cc2)c1 sits at 40% or higher.
Data returned: Not fulfilled

Data request: Can C/C(=C\c1ccc(O)cc1O)c1ccc2ccc(O)cc2[o+]1 be said to have growth at or above 40%?
Data returned: Not fulfilled

* * *

# growth per record follows
System: MOLT-4 leukemia
measurementProtocol: NCI-60 one-dose screen, 48 h (100 = growth as untreated, 0 = no growth, -100 = all killed)
experimentalContext: 10 µM
About 83,000 compounds went through this panel and 20% of them were active in at least one assay; those are over-represented in the sample as a whole.
Numeric answer only, unit % assumed.

Cc1nn(-c2ccccc2)c2ncn(CC(=O)N/N=C/c3c[nH]c4ccccc34)c(=O)c12 | 55.8
O=C(Nc1nc2ccc([N+](=O)[O-])cc2s1)Nc1cc(Cl)ccc1I | -44.6

Data request: Can you look up the measured growth of COc1ccccc1[C@H]1C(C(=O)c2ccc(Cl)cc2)C2(N[C@@H]1c1ccccc1)C(=O)Nc1ccccc12 (stereo partly drawn) for me?
Data returned: -17.7
